Target: human norepinephrine transporter (hNET) (Homo sapiens)
Sequence (P23975 whole entry): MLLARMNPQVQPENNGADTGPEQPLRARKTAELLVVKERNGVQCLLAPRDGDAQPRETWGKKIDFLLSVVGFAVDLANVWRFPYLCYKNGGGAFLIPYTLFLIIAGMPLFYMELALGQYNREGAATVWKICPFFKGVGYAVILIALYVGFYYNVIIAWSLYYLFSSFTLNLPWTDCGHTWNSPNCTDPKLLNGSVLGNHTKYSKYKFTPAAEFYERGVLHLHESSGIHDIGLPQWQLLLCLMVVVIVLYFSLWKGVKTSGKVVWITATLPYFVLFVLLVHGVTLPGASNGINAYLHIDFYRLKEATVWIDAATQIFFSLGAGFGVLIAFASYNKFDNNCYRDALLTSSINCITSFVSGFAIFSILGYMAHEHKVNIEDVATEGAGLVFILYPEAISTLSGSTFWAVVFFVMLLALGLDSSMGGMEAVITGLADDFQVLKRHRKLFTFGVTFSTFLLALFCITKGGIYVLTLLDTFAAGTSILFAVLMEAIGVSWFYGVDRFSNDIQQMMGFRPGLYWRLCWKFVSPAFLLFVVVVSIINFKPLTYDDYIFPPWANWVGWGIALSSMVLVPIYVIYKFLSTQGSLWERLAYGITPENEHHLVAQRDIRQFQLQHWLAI
Test: Screening for compounds active at human norepinephrine transporter (hNET) using a scintillation proximity assay, competition with [3H]-Nisoxetine
Details: hNET SPA, membranes of HEK-293 cells expressing recombinant hNET
readout: IC50

IC50 recorded for this molecule, CNCC[C@@H](c1ccccc1)c1c[nH]c2nccc(OC)c12 , is ~0.0178 µM

====

Molecular target: human serotonin transporter (hSERT) (Homo sapiens, UniProt P31645)
Construct: expressed in transfected cells; host or cells: HEK-293
Sequence (P31645 whole entry): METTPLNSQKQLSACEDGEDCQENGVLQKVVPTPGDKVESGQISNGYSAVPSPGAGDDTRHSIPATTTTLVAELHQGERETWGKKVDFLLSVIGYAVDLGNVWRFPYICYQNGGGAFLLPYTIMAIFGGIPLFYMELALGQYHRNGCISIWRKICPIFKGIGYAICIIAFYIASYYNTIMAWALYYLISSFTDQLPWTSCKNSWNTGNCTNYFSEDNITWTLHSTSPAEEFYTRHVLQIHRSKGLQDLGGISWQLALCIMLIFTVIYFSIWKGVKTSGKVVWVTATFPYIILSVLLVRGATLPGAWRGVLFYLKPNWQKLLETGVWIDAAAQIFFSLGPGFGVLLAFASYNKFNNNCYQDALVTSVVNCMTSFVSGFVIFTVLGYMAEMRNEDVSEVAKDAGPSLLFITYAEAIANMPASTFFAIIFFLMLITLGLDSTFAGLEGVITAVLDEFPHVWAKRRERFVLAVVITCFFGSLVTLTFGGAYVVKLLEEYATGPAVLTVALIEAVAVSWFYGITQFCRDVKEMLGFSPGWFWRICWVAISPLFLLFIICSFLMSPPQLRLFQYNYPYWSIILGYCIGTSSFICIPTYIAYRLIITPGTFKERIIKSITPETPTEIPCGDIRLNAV
Test: Screening for human serotonin transporter (hSERT) antagonists using a scintillation proximity assay, competition with [3H]-Citalopram
Format: binding
Conditions: hSERT SPA, membranes of HEK-293 cells expressing recombinant hSERT
readout: IC50

IC50 recorded for this molecule, CNCC[C@@H](c1ccccc1)c1c[nH]c2nccc(OC)c12 , is ~1.78 nM
